Target: hGYS1 enzyme (recombinant hGYS1/GN1 protein) (Homo sapiens (Human), UniProt P13807)
Sequence (P13807 whole entry): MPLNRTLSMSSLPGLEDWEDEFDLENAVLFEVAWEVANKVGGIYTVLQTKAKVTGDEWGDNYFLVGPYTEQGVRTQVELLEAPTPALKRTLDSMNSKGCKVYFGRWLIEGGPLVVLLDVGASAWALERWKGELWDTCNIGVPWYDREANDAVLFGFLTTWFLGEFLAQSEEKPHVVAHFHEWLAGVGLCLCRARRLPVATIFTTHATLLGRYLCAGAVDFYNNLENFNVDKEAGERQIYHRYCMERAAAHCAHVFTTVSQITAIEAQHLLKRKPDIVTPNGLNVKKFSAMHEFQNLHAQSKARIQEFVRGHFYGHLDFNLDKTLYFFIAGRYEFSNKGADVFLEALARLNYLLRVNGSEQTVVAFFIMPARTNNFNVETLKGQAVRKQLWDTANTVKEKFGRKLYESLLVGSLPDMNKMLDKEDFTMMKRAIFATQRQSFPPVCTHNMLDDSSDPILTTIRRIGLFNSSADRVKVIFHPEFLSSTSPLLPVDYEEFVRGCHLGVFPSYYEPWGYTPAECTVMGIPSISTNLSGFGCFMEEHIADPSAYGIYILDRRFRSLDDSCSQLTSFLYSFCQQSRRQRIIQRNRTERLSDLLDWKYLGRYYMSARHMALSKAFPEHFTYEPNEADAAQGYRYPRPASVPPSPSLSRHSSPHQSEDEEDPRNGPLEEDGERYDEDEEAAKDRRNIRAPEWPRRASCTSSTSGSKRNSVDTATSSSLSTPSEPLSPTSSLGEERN
Sequence (P46976 whole entry partner): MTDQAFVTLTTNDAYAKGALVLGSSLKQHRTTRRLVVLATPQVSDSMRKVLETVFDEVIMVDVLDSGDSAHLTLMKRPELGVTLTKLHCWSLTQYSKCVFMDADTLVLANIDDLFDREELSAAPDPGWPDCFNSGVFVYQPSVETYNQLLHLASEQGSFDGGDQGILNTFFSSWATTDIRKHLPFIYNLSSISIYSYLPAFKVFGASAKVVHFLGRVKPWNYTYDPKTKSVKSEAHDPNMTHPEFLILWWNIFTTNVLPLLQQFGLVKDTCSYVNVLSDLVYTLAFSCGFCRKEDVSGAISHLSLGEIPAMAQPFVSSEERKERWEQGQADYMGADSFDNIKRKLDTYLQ
Assay: GYS1 coupled enzyme assay (PK/LDH)
Details: hGYS1/GN1 50 nM, UDP-Glucose 0.8 mM, G6P 1 mM; geometric mean of at least 2 runs
parameter: IC50 (nM)
Number only, in nM; omit the unit.

Q: Provide IC50, system hGYS1 enzyme (recombinant hGYS1/GN1 protein) (Homo sapiens (Human), UniProt P13807), entry Cc1nc(CC(=O)N2C[C@H](F)C[C@H]2C(=O)N[C@@H](c2ccccc2)c2ccc(C(C)C)cc2)c(C)s1 [Compound 69]
Ans: 36

Q: Provide IC50, system hGYS1 enzyme (recombinant hGYS1/GN1 protein) (Homo sapiens (Human), UniProt P13807), entry CCn1c(=O)ccn(CC(=O)N2C[C@H](F)C[C@H]2C(=O)N[C@@H](c2ccccc2)c2ccc(C3CC3)c(F)n2)c1=O [Compound 735]
Ans: 5

Q: Provide IC50, system hGYS1 enzyme (recombinant hGYS1/GN1 protein) (Homo sapiens (Human), UniProt P13807), entry Cn1cc(CC(=O)N2C[C@H](F)C[C@H]2C(=O)N[C@@H](c2ccccc2)c2ccc(C3CC3)c(F)c2)c2ccccc21 [Compound 463]
Ans: 25

Q: Provide IC50, system hGYS1 enzyme (recombinant hGYS1/GN1 protein) (Homo sapiens (Human), UniProt P13807), entry CC(C)c1ccc([C@H](NC(=O)[C@@H]2C[C@@H](F)CN2C(=O)Cc2cnn[nH]2)c2ccccc2)cc1Cl [Compound 671]
Ans: 849

* * *

Entries and their pIC50 values follow.
Target: hGYS1 enzyme (recombinant hGYS1/GN1 protein) (Homo sapiens (Human))
Test: GYS1 coupled enzyme assay (PK/LDH)
Conditions: hGYS1/GN1 50 nM, UDP-Glucose 0.8 mM, G6P 1 mM; geometric mean of at least 2 runs
The scale used: pIC50 is minus the common logarithm of the concentration in molar units.

CC(C)c1ccc([C@@H](NC(=O)[C@@H]2C[C@@H](F)CN2S(=O)(=O)Cc2cnn[nH]2)c2ccccc2)cc1F [Compound 772] ... 6.45
Cc1n[nH]c(C)c1CC(=O)N1C[C@H](F)C[C@H]1C(=O)N[C@@H](c1ccccc1)c1ccc(C(C)C)cn1 [Compound 246] ... 7.48
CC(C)c1ccc([C@@H](NC(=O)[C@@H]2C[C@@H](F)CN2C(=O)CNC(N)=O)c2ccccc2)nc1F [Compound 396] ... 7.89
CC(C)c1ccc([C@@H](NC(=O)[C@@H]2C[C@@H](F)CN2C(=O)CCc2cnn(C)c2)c2ccccc2)cc1 [Compound 76] ... 6.97
CC(C)c1ccc([C@@H](NC(=O)[C@@H]2C[C@@H](F)CN2C(=O)Cc2cnn[nH]2)c2cccc(F)c2)cc1F [Compound 645] ... 7.00

Q: Give me measured pIC50, please, for this molecule: O=C(N[C@@H](c1ccccc1)c1ccc(C2CC2)c(F)n1)[C@@H]1C[C@@H](F)CN1C(=O)Cn1nccc1C(F)F [Compound 725]
Ans: 7.82

Q: Give me measured pIC50, please, for this molecule: CC(C)c1ccc([C@@H](NC(=O)[C@@H]2C[C@@H](F)CN2C(=O)CCc2cnc3[nH]ccc3c2)c2ccccc2)cc1 [Compound 134]
Ans: 7.39

Q: Give me measured pIC50, please, for this molecule: O=C(N[C@@H](c1ccccc1)c1ccc(C2CC2)c(F)c1)[C@@H]1C[C@@H](F)CN1C(=O)CN1C(=O)Cc2ccccc21 [Compound 454]
Ans: 7.14
